Molecular target: Pyrroline-5-carboxylate reductase (Arabidopsis thaliana)
Assay: Uncompetitive inhibition of Arabidopsis thaliana P5C reductase by Dixon plot
ENDPOINT LABEL: Ki (µM)
Answer in µM, number only, no unit symbol.

Q. Return reported Ki; argument: O=P(O)(O)C(Nc1cc(Cl)cc(Cl)c1)P(=O)(O)O
A. 10.3

----------
Target: Pyrroline-5-carboxylate reductase (Arabidopsis thaliana) (UniProt P54904)
Assay: Inhibition of Arabidopsis thaliana P5C reductase catalytic activity assessed as […] at 535 nm OD at 0.5 mM by P5C utilization assay
Design: scale not given: the % may be the effect or the level left
ENDPOINT LABEL: Activity (%)
Answer in %, number only, no unit symbol.

O=P(O)(O)C(Nc1ccc(Br)cn1)P(=O)(O)O | 100
O=P(O)(O)C(NC1CCCCC1)P(=O)(O)O | 93.8
Cc1cccc(NC(P(=O)(O)O)P(=O)(O)O)n1 | 103
O=P(O)(O)C(Nc1cccnc1)P(=O)(O)O | 102
Cc1nc(NC(P(=O)(O)O)P(=O)(O)O)c(Br)cc1Br | 54.8

Q. Return reported Activity; argument: O=P(O)(O)C(Nc1ccc(Cl)nc1)P(=O)(O)O
A. 94.9

Q. Return reported Activity; argument: O=P(O)(O)C(NCc1ccccn1)P(=O)(O)O
A. 92.9

----------
Target: 3-phosphoshikimate 1-carboxyvinyltransferase (Spinacia oleracea)
Assay: Inhibition of Spinacia oleracea (spinach) EPSP synthase activity
Settings: read-out: I50
ENDPOINT LABEL: IC50 (µM)
Answer in µM, number only, no unit symbol.

Q. Return reported IC50; argument: O=P(O)(O)C(Nc1cc(Cl)cc(Cl)c1)P(=O)(O)O
A. 30

----------
Biological target: Pyrroline-5-carboxylate reductase (Arabidopsis thaliana)
Assay: Noncompetitive inhibition of Arabidopsis thaliana P5C reductase by Lineweaver-Burk plot
ENDPOINT LABEL: Ki (µM)
Answer in µM, number only, no unit symbol.

Q. # get_value(readout= Ki, system= Pyrroline-5-carboxylate reductase (Arabidopsis thaliana)) for O=P(O)(O)C(Nc1cc(Cl)cc(Cl)c1)P(=O)(O)O
A. 199

----------
Biological target: Pyrroline-5-carboxylate reductase (Arabidopsis thaliana)
Assay: Inhibition of Arabidopsis thaliana P5C reductase catalytic activity assessed as inhibition of NADH oxidation at 340 nm OD at 0.2 mM by NADH oxidation assay
Parameters: scale not given: the % may be the effect or the level left
ENDPOINT LABEL: Activity (%)
Answer in %, number only, no unit symbol.

Below, 5 compounds whose answers are already recorded.
O=P(O)(O)C(Nc1ncc(Cl)cc1Cl)P(=O)(O)O | 105
O=P(O)(O)C(Nc1ccc(I)cn1)P(=O)(O)O | 106
O=P(O)(O)C(Nc1ccc(Br)cn1)P(=O)(O)O | 104
O=P(O)(O)C(NCCc1ccc(O)cc1)P(=O)(O)O | 105
O=P(O)(O)C(Nc1ccc(Cl)nc1)P(=O)(O)O | 99.4

Q. Return reported Activity; argument: O=P(O)(O)C(Nc1ncc(Br)cc1Br)P(=O)(O)O
A. 92

Q. Return reported Activity; argument: O=[N+]([O-])c1cccc(NC(P(=O)(O)O)P(=O)(O)O)c1
A. 102

Q. Return reported Activity; argument: O=P(O)(O)C(Nc1ccnc(Cl)c1)P(=O)(O)O
A. 91.2

Q. Return reported Activity; argument: O=C(O)c1cccnc1NC(P(=O)(O)O)P(=O)(O)O
A. 96.3

Q. Return reported Activity; argument: O=P(O)(O)C(Nc1cccnc1)P(=O)(O)O
A. 109

Q. Return reported Activity; argument: O=P(O)(O)C(NC1CCCCC1)P(=O)(O)O
A. 108

Q. Return reported Activity; argument: Cc1nc(NC(P(=O)(O)O)P(=O)(O)O)c(Br)cc1Br
A. 66.1

----------
Listed here: items and their measured Activity.
Molecular target: Pyrroline-5-carboxylate reductase (Arabidopsis thaliana)
Assay: Inhibition of Arabidopsis thaliana P5C reductase catalytic activity assessed as […] at 535 nm OD at 0.5 mM by P5C utilization assay
Design: scale not given: the % may be the effect or the level left

O=P(O)(O)C(Nc1ccncc1)P(=O)(O)O | 101%

Q. Return reported Activity; argument: O=P(O)(O)C(Nc1ccccc1)P(=O)(O)O
A. 114%

----------
Molecular target: Pyrroline-5-carboxylate reductase (Arabidopsis thaliana, UniProt P54904)
Assay: Noncompetitive inhibition of Arabidopsis thaliana P5C reductase by Lineweaver-Burk plot in presence of NADPH
ENDPOINT LABEL: Ki

Q. # get_value(readout= Ki, system= Pyrroline-5-carboxylate reductase (Arabidopsis thaliana, UniProt P54904)) for O=P(O)(O)C(Nc1cc(Cl)cc(Cl)c1)P(=O)(O)O
A. 230 µM

----------
Target: Pyrroline-5-carboxylate reductase (Arabidopsis thaliana) (UniProt P54904)
Sequence (whole entry): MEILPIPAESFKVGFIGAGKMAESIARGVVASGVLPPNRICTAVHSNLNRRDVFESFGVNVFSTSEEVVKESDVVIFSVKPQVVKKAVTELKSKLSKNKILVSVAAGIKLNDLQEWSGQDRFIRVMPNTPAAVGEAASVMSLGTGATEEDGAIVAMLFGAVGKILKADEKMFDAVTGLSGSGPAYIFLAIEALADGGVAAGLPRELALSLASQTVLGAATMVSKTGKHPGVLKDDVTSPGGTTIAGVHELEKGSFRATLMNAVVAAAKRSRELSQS
Experiment: Inhibition of Arabidopsis thaliana P5C reductase catalytic activity assessed as […] at 535 nm OD at 0.5 mM by P5C utilization assay
Design: scale not given: the % may be the effect or the level left
ENDPOINT LABEL: Activity (%)
Answer in %, number only, no unit symbol.

Q. Return reported Activity; argument: O=[N+]([O-])c1cccc(NC(P(=O)(O)O)P(=O)(O)O)c1
A. 96.4

Q. Return reported Activity; argument: NC(P(=O)(O)O)P(=O)(O)O
A. 84.6

Q. Return reported Activity; argument: O=P(O)(O)C(Nc1ccnc(Cl)c1)P(=O)(O)O
A. 97.9

Q. Return reported Activity; argument: O=P(O)(O)C(Nc1ncc(Cl)cc1Cl)P(=O)(O)O
A. 97

Q. Return reported Activity; argument: O=P(O)(O)C(Nc1ncc(Br)cc1Br)P(=O)(O)O
A. 99.8

Q. Return reported Activity; argument: O=P(O)(O)C(Nc1ccc(Cl)cn1)P(=O)(O)O
A. 92.4

Q. Return reported Activity; argument: Cc1ccccc1CNC(P(=O)(O)O)P(=O)(O)O
A. 96.9

Q. Return reported Activity; argument: O=C(O)c1cccc(NC(P(=O)(O)O)P(=O)(O)O)c1
A. 92.4

Q. Return reported Activity; argument: O=C(O)c1cccnc1NC(P(=O)(O)O)P(=O)(O)O
A. 94.1

Q. Return reported Activity; argument: O=P(O)(O)C(Nc1ccc(I)cn1)P(=O)(O)O
A. 89.9

Q. Return reported Activity; argument: Cc1ccc(NC(P(=O)(O)O)P(=O)(O)O)cc1
A. 98.2

Q. Return reported Activity; argument: Cc1ccnc(NC(P(=O)(O)O)P(=O)(O)O)c1
A. 106

----------
Target: 3-phosphoshikimate 1-carboxyvinyltransferase (Nicotiana tabacum)
Assay: Inhibition of EPSP synthase in Nicotiana tabacum (tobacco) cells
Settings: read-out: I50
ENDPOINT LABEL: IC50 (µM)
Answer in µM, number only, no unit symbol.

Q. # get_value(readout= IC50, system= 3-phosphoshikimate 1-carboxyvinyltransferase (Nicotiana tabacum)) for O=P(O)(O)C(Nc1cc(Cl)cc(Cl)c1)P(=O)(O)O
A. 30

----------
Listed here: items and their measured Activity.
Biological target: Pyrroline-5-carboxylate reductase (Arabidopsis thaliana)
Assay: Inhibition of Arabidopsis thaliana P5C reductase catalytic activity assessed as inhibition of NADH oxidation at 340 nm OD at 0.2 mM by NADH oxidation assay
Set-up: scale not given: the % may be the effect or the level left
Answer in %, number only, no unit symbol.

O=P(O)(O)C(Nc1cc(Cl)cc(Cl)c1)P(=O)(O)O | 37.7
O=P(O)(O)C(Nc1ccccn1)P(=O)(O)O | 114
Cc1ccnc(NC(P(=O)(O)O)P(=O)(O)O)c1 | 106

Q. Return reported Activity; argument: O=P(O)(O)C(NCc1ccccn1)P(=O)(O)O
A. 118

----------
Target: Pyrroline-5-carboxylate reductase (Arabidopsis thaliana)
Test: Inhibition of Arabidopsis thaliana P5C reductase catalytic activity assessed as […] at 535 nm OD at 0.5 mM by P5C utilization assay
Set-up: scale not given: the % may be the effect or the level left
Would you mind labelling by Activity? At or over 90% is TRUE, under is FALSE.

Example entries begin here.
O=P(O)(O)C(NCc1ccccc1)P(=O)(O)O | TRUE
O=P(O)(O)C(NCCc1ccc(O)cc1)P(=O)(O)O | TRUE
O=P(O)(O)C(Nc1cc(Cl)cc(Cl)c1)P(=O)(O)O | FALSE

Here's the next entry for you.
Q. Assess whether reported Activity for O=P(O)(O)C(Nc1ccccn1)P(=O)(O)O sits at 90% or higher.
A. TRUE
